Attribution: the supplement of paper PMC7017272

- Tested on: UT-SCC-40
- assay-explanation: maximal % inhibition of viability relative to DMSO; higher = stronger effect
- conditions-used: culture condition: on top of Matrigel; treatment time: 3 days
readout: maximal % inhibition of viability (%)
API: value field is a number in %; no unit string.

Below, 3 molecules whose answers are already recorded.
| cpd-smiles | tested-target | value-reported |
| --- | --- | --- |
| Cc1c(CN2CCN(C(=O)[C@H](C)O)CC2)sc2c(N3CCOCC3)nc(-c3cnc(N)nc3)nc12 | UT-SCC-40 | 87.3 |
| Cn1c(=O)c(F)c(Nc2ccc(I)cc2F)c2c(=O)n(C[C@@H](O)CO)cnc21 | UT-SCC-40 | 72.9 |
| CN(C)C/C=C/C(=O)Nc1cc2c(Nc3ccc(F)c(Cl)c3)ncnc2cc1O[C@H]1CCOC1 | UT-SCC-40 | 74.2 |

Exam item: Find the recorded maximal % inhibition of viability belonging to `O=C(NC[C@H](O)CO)c1ccncc1Nc1ccc(I)cc1F` and report it.
Marked response: 77.8

* * *

Entries and their relative IC50 values follow.
- System: UT-SCC-28
- assay-explanation: relative IC50 (midpoint of the fitted curve; maximal inhibition may be below 50%); higher = less potent
- conditions-used: culture condition: embedded in Matrigel; treatment time: 3 days
Write the answer as a number in nM, unit excluded.

# example entries with known answers
| cpd-smiles | value-reported |
| --- | --- |
| Cn1cnc2c(F)c(Nc3ccc(Br)cc3Cl)c(C(=O)NOCCO)cc21 | 79.9 |
| COc1ncc(-c2ccc3nccc(-c4ccnnc4)c3c2)cc1NS(=O)(=O)c1ccc(F)cc1F | 2.99 |
| CO[C@H]1C[C@@H]2CC[C@@H](C)[C@@](O)(O2)C(=O)C(=O)N2CCCC[C@H]2C(=O)O[C@H]([C@H](C)C[C@@H]2CC[C@@H](O)[C@H](OC)C2)CC(=O)[C@H](C)/C=C(\C)[C@@H](O)[C@@H](OC)C(=O)[C@H](C)C[C@H](C)/C=C/C=C/C=C/1C | 2.04 |
| Cc1c(CN2CCN(C(=O)[C@H](C)O)CC2)sc2c(N3CCOCC3)nc(-c3cnc(N)nc3)nc12 | 330 |
| O=C(NC[C@H](O)CO)c1ccncc1Nc1ccc(I)cc1F | 76.8 |

Then this molecule:
Exam item: Need relative IC50, item `C=CC(=O)Nc1cc2c(Nc3ccc(F)c(Cl)c3)ncnc2cc1OCCCN1CCOCC1`
Marked response: 3420

* * *

- Test system: UT-SCC-8
- assay-explanation: relative IC50 (midpoint of the fitted curve; maximal inhibition may be below 50%); higher = less potent
- conditions-used: culture condition: on top of Matrigel; treatment time: 3 days
Entry flag: criterion met if relative IC50 reaches 200 nM; criterion not met if it does not.

| cpd-smiles | group-label |
| --- | --- |
| CN(C)C/C=C/C(=O)Nc1cc2c(Nc3ccc(F)c(Cl)c3)ncnc2cc1O[C@H]1CCOC1 | criterion not met |
| COc1cc(F)c(F)c(Nc2ccc(I)cc2F)c1NS(=O)(=O)C1(C[C@H](O)CO)CC1 | criterion met |
| Cn1cnc2c(F)c(Nc3ccc(Br)cc3Cl)c(C(=O)NOCCO)cc21 | criterion not met |
| C=CC(=O)Nc1cc2c(Nc3ccc(F)c(Cl)c3)ncnc2cc1OCCCN1CCOCC1 | criterion not met |
| Cc1c(CN2CCN(C(=O)[C@H](C)O)CC2)sc2c(N3CCOCC3)nc(-c3cnc(N)nc3)nc12 | criterion met |
| COc1ncc(-c2ccc3nccc(-c4ccnnc4)c3c2)cc1NS(=O)(=O)c1ccc(F)cc1F | criterion not met |

Read the next record carefully.
Exam item: Entry `O=C(NC[C@H](O)CO)c1ccncc1Nc1ccc(I)cc1F` : is its relative IC50 no less than 200 nM?
Marked response: criterion not met
